Target: human Claudin-6 (CLDN6) (human) (UniProt P56747)
Test: FACS, 1.5 ug Ab, OVCA429 cells (2nd Ab only 885.77)
quantity_kind: FACS fluorescence
Lab note: record just the number, no unit beside it.

Field: example entries. Status: answers known.
binder="AB18-chim (antibody, V domains shown) VH: QVQLKQSGPELEKPGASVKISCKASGYSFTGYNMNWVKQSNGKSLEWIGNIDPYYGGSTYNQKFTGKATLTVDKSSSTAYMQLKSLTSEDSAVYYCARERSGYVFSAMDYWGQGTSVTVSS VL: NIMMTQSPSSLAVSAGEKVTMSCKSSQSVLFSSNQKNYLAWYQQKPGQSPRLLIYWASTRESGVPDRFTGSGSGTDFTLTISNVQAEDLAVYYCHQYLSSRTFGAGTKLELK" measurement=25500
binder="AB1-8 (antibody, V domains shown, humanized) VH: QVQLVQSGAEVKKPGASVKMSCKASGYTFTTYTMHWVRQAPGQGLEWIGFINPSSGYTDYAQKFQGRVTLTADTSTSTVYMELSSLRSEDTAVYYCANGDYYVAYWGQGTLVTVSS VL: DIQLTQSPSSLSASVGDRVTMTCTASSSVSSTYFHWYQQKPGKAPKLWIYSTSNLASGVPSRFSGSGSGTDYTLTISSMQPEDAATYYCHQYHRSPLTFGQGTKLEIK" measurement=66000
binder="AB11-3 (antibody, V domains shown, humanized) VH: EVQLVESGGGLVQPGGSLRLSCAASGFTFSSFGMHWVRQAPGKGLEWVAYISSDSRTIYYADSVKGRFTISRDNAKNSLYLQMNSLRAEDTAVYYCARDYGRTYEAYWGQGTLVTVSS VL: DIVLTQSPDSLAVSLGERATINCRASKSVSTSGYSYIHWYQQKPGQPPKLLIYLASNLESGVPDRFSGSGSGTDFTLTISSVQAEDVAVYYCQHSRELPLTFGQGTKLELK" measurement=2200
binder="AB1-4 (antibody, V domains shown, humanized) VH: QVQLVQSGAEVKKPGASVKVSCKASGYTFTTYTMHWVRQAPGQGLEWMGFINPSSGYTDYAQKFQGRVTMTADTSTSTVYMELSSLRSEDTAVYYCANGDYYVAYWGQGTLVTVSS VL: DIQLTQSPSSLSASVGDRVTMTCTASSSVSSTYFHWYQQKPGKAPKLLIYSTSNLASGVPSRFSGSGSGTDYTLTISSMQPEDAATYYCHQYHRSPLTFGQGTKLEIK" measurement=34600
binder="AB4-4 (antibody, V domains shown, humanized) VH: QVQLVQSGAEVKKPGASVKMSCKASGYTFTSYTMHWIRQAPGQGLEWIGYINPSSTYTHYAQKFQGRATLTADTSTSTAYMELSSLRSEDTAVYYCSRGELGGFAYWGQGTLVTVSS VL: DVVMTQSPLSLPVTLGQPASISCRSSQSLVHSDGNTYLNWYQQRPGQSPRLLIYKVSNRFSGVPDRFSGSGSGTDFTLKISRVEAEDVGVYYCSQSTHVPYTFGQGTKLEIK" measurement=1200
binder="AB11-2 (antibody, V domains shown, humanized) VH: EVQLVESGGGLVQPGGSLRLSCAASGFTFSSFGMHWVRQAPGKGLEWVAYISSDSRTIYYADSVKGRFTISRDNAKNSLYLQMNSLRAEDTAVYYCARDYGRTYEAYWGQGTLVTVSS VL: DIVMTQSPDSLAVSLGERATINCRASKSVSTSGYSYIHWYQQKPGQPPKLLIYLASNLESGVPDRFSGSGSGTDFTLTISSLQAEDVAVYYCQHSRELPLTFGQGTKLEIK" measurement=2690

Could you now consider this next binder?
-- ask Dear colleague, please send me the reported FACS fluorescence for AB1-3 (antibody, V domains shown, humanized) VH: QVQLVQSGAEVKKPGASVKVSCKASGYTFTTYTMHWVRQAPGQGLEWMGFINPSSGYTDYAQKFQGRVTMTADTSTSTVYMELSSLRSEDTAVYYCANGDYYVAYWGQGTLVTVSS VL: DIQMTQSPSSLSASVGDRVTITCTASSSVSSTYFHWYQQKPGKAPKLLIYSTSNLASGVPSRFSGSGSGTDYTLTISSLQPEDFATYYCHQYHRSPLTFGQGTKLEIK when you can.
-- reply 27500
